The measurements presented in this section are drawn from PubChem BioAssay (Tox21).

# system_name: Nuclear receptor subfamily 1 group I member 3 (Homo sapiens) (UniProt Q14994)
# Sequence (Q14994 whole entry, looked up): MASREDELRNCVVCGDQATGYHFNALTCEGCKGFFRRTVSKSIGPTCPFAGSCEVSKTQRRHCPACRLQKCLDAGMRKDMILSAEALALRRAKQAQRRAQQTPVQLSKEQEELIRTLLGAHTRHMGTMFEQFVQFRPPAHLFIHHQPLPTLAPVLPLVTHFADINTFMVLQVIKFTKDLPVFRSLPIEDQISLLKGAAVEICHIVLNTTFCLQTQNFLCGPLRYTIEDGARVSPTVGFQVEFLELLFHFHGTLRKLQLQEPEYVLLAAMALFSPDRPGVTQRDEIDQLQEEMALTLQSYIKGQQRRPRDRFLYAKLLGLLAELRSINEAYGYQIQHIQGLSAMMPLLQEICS
# measurement_notes: qHTS assay to identify small molecule antagonists of the constitutive androstane receptor (CAR) signaling pathway (AID 1224838);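 note: HepG2 cells stably expressing hCAR with CYP2B6 luciferase reporter stimulated by CITCO; nearly all actives have a fitted effect of over 40% in size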
# study_conditions: HepG2-CYP2B6-hCAR luciferase, CITCO-stimulated, 24 h; series mostly up to 92.4 µM
Results filed as inconclusive are left out. Active and inactive are the calls of the source. Calls come from the whole dose curve; as a rule, active = well fitted inhibition curve with a large enough effect in the repeat runs; inconclusive = weak or mixed curves, or effect the other way; inactive = no such curve, though single readings can be large or run the other way.
measurement_label: outcome

// known answers, use as guide
{"compound": "COc1cccc(-c2ccc(/C=C\\CN3CCCCCC3)cc2Cl)c1", "outcome": "inactive"}
{"compound": "CC(C)(c1ccc(Oc2ccc(N)cc2)cc1)c1ccc(Oc2ccc(N)cc2)cc1", "outcome": "inactive"}
{"compound": "CC(Cc1ccc(O)c(O)c1)C(C)Cc1ccc(O)c(O)c1 (stereo unspecified)", "outcome": "inactive"}
{"compound": "Nc1cc([N+](=O)[O-])cc(Cl)c1O", "outcome": "inactive"}

Please state outcome for every compound in the list that follows.
1. CCC(C)(C)c1ccc(CC(C)CN2C[C@@H](C)O[C@@H](C)C2)cc1 (stereo partly specified)
2. CC1CCC(C(C)(C)O)CC1 (stereo unspecified)

["inactive", "inactive"]
